- Assay Remarks: Hepatic Stability Assay (in vitro half-life method)
- Type: in vitro ADME
- Set-up: dose or concentration left out as unconfirmed
- Cond: pooled cryopreserved hepatocytes, 37° C., 1×10^6 cells/mL, 0-6 hours, LC-MS/MS, 39.5 hours is the maximum detectable half life, read-out: t½ (converted)
Readout Type: log10(half-life) (log10 of the value in h)
In our notation, the value equals log10 of half-life in h.

Worked examples, 3 compounds total:
{"columns": ["Compound", "Readout Type", "Assay Value"],
 "data": [
  ["Cc1c(C(=O)C(=O)N[C@]2(C)C[S@+]([O-])C2)c2n(c1C(=O)Nc1ccc(F)c(F)c1)CCC2", "log10(half-life)", 1.02],
  ["CNC(=O)C1(NC(=O)C(=O)c2c(C)c(C(=O)Nc3ccc(F)c(C#N)c3)n3c2C[C@H]2C[C@H]23)CC(F)(F)C1", "log10(half-life)", 1.43],
  ["Cc1c(C(=O)C(=O)N[C@H](C)C(F)(F)F)c2n(c1C(=O)Nc1ccc(F)c(Cl)c1)C(C)CC2 (mixture of isomers) [Example 20]", "log10(half-life)", 1.16]
]}

[in] I would be grateful if you could share the reported log10(half-life) for `Cc1c(C(=O)C(=O)NC2(c3c[nH]nn3)CC2)c2n(c1C(=O)Nc1ccc(F)c(Cl)c1)CCC2` .
[out] 0.91

[in] I would be grateful if you could share the reported log10(half-life) for `CNC(=O)C1(NC(=O)C(=O)c2c(C)c(C(=O)Nc3ccc(F)c(Cl)c3)n3c2[C@H]2C[C@H]2C3)CC(F)(F)C1` .
[out] 1.26

---

Measured half-life, listed per entry for reference.
- Assay Remarks: Hepatic Stability Assay (in vitro half-life method)
- Type: in vitro ADME
- Parameters: dose or concentration left out as unconfirmed
- Cond: pooled cryopreserved hepatocytes, 37° C., 1×10^6 cells/mL, 0-6 hours, LC-MS/MS, 39.5 hours is the maximum detectable half life, read-out: t½ (converted)
Don't forget the unit after the value.

{"columns": ["Compound", "half-life"],
 "data": [
  ["C#CC1(NC(=O)C(=O)c2c(C)c(C(=O)Nc3ccc(F)c(Cl)c3)n3c2CCC3)CC1", "2.9 h"],
  ["Cc1c(C(=O)C(=O)NC2(C)CS(=O)(=O)C2)c2n(c1C(=O)Nc1ccc(F)c(Cl)c1)CCC2", "17.1 h"],
  ["CNC(=O)C1(NC(=O)C(=O)c2c(C)c(C(=O)Nc3ccc(F)c(C#N)c3)n3c2CCC3C)CC(F)(F)C1 (centres unmarked)", "18.3 h"]
]}

[in] I would be grateful if you could share the reported half-life for `Cc1c(C(=O)C(=O)N[C@](C)(CO)C(F)(F)F)c2n(c1C(=O)Nc1ccc(F)c(F)c1)CCC2` .
[out] 12.5 h

[in] I would be grateful if you could share the reported half-life for `Cc1c(C(=O)C(=O)NC2(CO)CC(F)(F)C2)c2n(c1C(=O)Nc1ccc(F)c(F)c1)CCC2` .
[out] 15.2 h

[in] I would be grateful if you could share the reported half-life for `Cc1c(C(=O)C(=O)NC2(c3c[nH]nn3)CC2)c2n(c1C(=O)Nc1ccc(F)c(Cl)c1)C[C@@H](F)C2` .
[out] 16 h

[in] I would be grateful if you could share the reported half-life for `Cc1c(C(=O)C(=O)NC2(c3c[nH]nn3)CC2)c2n(c1C(=O)Nc1ccnc(C(F)F)c1F)[C@@H]1C[C@@H]1C2` .
[out] 11.2 h

[in] I would be grateful if you could share the reported half-life for `Cc1c(C(=O)C(=O)NC2(c3c[nH]nn3)CC2)c2n(c1C(=O)Nc1cc(Cl)cc(Cl)c1)CCC2` .
[out] 4.8 h

[in] I would be grateful if you could share the reported half-life for `Cc1c(C(=O)C(=O)NC2(c3c[nH]nn3)CC2)c2n(c1C(=O)Nc1cc(F)cc(Cl)c1)CCC2` .
[out] 7 h

[in] I would be grateful if you could share the reported half-life for `CNC(=O)[C@](C)(NC(=O)C(=O)c1c(C)c(C(=O)Nc2ccc(F)c(F)c2)n2c1CCC2)C(F)(F)F` .
[out] 17.9 h

[in] I would be grateful if you could share the reported half-life for `Cc1c(C(=O)C(=O)NC2(c3c[nH]nn3)CC2)c2n(c1C(=O)Nc1ccc(F)c(Cl)c1)C[C@H](F)C2` .
[out] 13.3 h

[in] I would be grateful if you could share the reported half-life for `Cc1c(C(=O)C(=O)NC2(c3c[nH]nn3)CC(F)(F)C2)c2n(c1C(=O)Nc1cc(F)c(F)c(F)c1)[C@@H]1C[C@@H]1C2` .
[out] 5.2 h

[in] I would be grateful if you could share the reported half-life for `Cc1nnc(C2(NC(=O)C(=O)c3c(C)c(C(=O)Nc4cc(F)c(F)c(F)c4)n4c3CCC4)CC2)o1` .
[out] 14.8 h

[in] I would be grateful if you could share the reported half-life for `Cc1c(C(=O)C(=O)NC2(c3c[nH]nn3)CC(F)(F)C2)c2n(c1C(=O)Nc1ccc(F)cc1)C[C@H](F)C2` .
[out] 7.9 h

[in] I would be grateful if you could share the reported half-life for `Cc1c(C(=O)C(=O)NC2(c3nncs3)CC2)c2n(c1C(=O)Nc1ccnc(C(F)F)c1F)[C@@H]1C[C@@H]1C2` .
[out] 5.2 h

[in] I would be grateful if you could share the reported half-life for `CNC(=O)C1(NC(=O)C(=O)c2c(C)c(C(=O)Nc3cc(F)c(F)c(Cl)c3)n3c2CCC3)CC(F)(F)C1` .
[out] 20.8 h

[in] I would be grateful if you could share the reported half-life for `Cc1c(C(=O)C(=O)NC2(CN3CC4(COC4)C3)CC(F)(F)C2)c2n(c1C(=O)Nc1ccc(F)c(Cl)c1)CCC2` .
[out] 1 h

The reported measurements were obtained from patent US10328053B2.
